The values you see were collected from ChEMBL document CHEMBL1141231.

TESTED_SYSTEM: Cytochrome P450 3A4 (Homo sapiens, UniProt P08684)
Sequence (P08684 whole entry, canonical isoform): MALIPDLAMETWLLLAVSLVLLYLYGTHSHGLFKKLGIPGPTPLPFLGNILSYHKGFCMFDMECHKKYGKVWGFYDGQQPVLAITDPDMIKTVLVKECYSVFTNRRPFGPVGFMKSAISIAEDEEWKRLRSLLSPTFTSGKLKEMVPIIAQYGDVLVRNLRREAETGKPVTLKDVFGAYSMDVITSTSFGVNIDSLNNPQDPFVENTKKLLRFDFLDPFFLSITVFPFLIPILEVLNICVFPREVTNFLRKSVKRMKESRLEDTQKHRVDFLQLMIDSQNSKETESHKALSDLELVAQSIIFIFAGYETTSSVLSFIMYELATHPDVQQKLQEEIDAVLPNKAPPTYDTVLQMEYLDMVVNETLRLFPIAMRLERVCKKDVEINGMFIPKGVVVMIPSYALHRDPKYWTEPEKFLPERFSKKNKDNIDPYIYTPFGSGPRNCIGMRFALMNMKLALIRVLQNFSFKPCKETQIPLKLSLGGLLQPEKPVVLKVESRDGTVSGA
ASSAY_NAME: Inhibitory activity against cytochrome P450 3A4 isoform
PROPERTY_NAME: pIC50
Give bare numbers, as −log10 of the molar value.

Fill in the blank: the reported pIC50 of "O=C(CN(c1ccc(Cl)cc1)S(=O)(=O)c1ccc(NCCN2CCOCC2)cc1)N/N=C1\C(=O)Nc2ccccc21" is ____.
6.51

====

TESTED_SYSTEM: Cytochrome P450 2C19 (Homo sapiens, UniProt P33261)
Sequence (P33261 whole entry, canonical isoform): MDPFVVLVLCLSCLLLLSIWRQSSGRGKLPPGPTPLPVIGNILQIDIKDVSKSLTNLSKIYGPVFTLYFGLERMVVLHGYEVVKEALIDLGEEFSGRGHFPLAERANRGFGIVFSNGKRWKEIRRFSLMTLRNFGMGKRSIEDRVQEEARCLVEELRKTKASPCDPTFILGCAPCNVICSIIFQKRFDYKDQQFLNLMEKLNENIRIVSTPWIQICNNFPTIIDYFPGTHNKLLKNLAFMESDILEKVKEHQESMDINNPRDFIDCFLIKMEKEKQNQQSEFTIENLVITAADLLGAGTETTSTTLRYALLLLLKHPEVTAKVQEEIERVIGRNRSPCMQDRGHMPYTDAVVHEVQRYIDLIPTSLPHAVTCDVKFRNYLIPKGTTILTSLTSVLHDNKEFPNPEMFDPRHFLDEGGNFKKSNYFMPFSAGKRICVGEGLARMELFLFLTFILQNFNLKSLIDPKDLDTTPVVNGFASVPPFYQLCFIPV
ASSAY_NAME: Inhibitory activity against cytochrome P450 2C19 isoform
Type: ADME
PROPERTY_NAME: pIC50
Answers are plain numbers, as −log10 of the molar value.

# returns recorded pIC50 (system: Cytochrome P450 2C19 (Homo sapiens, UniProt P33261)) for "O=C(CN(c1ccc(Cl)cc1)S(=O)(=O)c1ccc(CCCO)cc1)N/N=C1\C(=O)Nc2ccccc21"
7.30

====

For each of the molecules below, state its pIC50.
TESTED_SYSTEM: Oxytocin receptor (Homo sapiens, UniProt P30559)
Sequence (P30559 whole entry): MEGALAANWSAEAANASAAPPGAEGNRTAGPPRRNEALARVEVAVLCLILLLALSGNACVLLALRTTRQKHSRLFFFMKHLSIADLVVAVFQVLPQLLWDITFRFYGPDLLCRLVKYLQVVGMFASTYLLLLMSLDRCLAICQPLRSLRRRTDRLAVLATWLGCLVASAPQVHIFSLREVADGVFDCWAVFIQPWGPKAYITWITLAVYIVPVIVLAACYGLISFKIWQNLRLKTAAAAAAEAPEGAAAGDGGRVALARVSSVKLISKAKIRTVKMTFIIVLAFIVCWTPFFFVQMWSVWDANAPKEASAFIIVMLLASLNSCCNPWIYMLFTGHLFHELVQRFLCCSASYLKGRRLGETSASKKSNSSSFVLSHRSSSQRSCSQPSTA
ASSAY_NAME: Inhibitory activity against human Oxytocin induced intracellular Calcium mobilization in human Oxytocin receptor transfected HEK293-EBNA cells
Where a SMILES comes first, the peptide text is derived from it. Bridges are numbered along the chain shown (N, C = ends). [ ]: non-standard residue; d: D form. Orn = NCCC[C@H](N)C(=O)O; Mpa = O=C(O)CCS
Answers are plain numbers, as −log10 of the molar value.

Here are 6 molecules together with their reported answers.
- MOLECULE: "CCOc1ccc(C[C@H]2NC(=O)CCSSC[C@@H](C(=O)N3CCC[C@H]3C(=O)N[C@@H](CCCN)C(=O)NCC(N)=O)NC(=O)[C@H](CC(N)=O)NC(=O)[C@H]([C@@H](C)O)NC(=O)[C@H]([C@@H](C)CC)NC2=O)cc1 [ATOSIBAN] ([Mpa][dY](Et)ITNCP[Orn]G-NH2; disulfide 1-6)"
  pIC50: 7.23
- MOLECULE: "CN(C)CCCOc1ccc(S(=O)(=O)N(CC(=O)N/N=C2\\C(=O)Nc3ccncc32)c2ccc(Cl)cc2)cc1"
  pIC50: 6.08
- MOLECULE: "O=C(CN(c1ccc(Cl)cc1)S(=O)(=O)c1ccc(CCCO)cc1)N/N=C1\\C(=O)Nc2ccccc21"
  pIC50: 7.49
- MOLECULE: "COCCOCCOc1ccc(S(=O)(=O)N(CC(=O)N/N=C2\\C(=O)Nc3ccccc32)c2ccc(Cl)cc2)cc1"
  pIC50: 8.15
- MOLECULE: "CN(C)CCCOc1ccc(S(=O)(=O)N(CC(=O)N/N=C2\\C(=O)NC(=O)c3ccccc32)c2ccc(Cl)cc2)cc1"
  pIC50: 7.82
- MOLECULE: "CN(C)CCOc1ccc(S(=O)(=O)N(CC(=O)N/N=C2\\C(=O)Nc3ccccc32)c2ccc(Cl)cc2)cc1"
  pIC50: 7.23

// for each molecule below, give its pIC50
1. CN(C)CCCOc1ccc(S(=O)(=O)N(CC(=O)N/N=C2\C(=O)Nc3ccccc32)c2ccc(Cl)cc2)cc1
2. CCOc1ccc(S(=O)(=O)N(CC(=O)NN=C2C(=O)Nc3ccccc32)c2ccc(C)cc2)cc1

[7.85, 7.52]

====

Observed pKi, system Oxytocin receptor (Homo sapiens, UniProt P30559).
Numbers only, as −log10 of the molar value.

Here are 3 molecules together with their reported answers.
- MOLECULE: "CCOc1ccc(S(=O)(=O)N(CC(=O)/N=N/c2c(O)[nH]c3ccccc23)c2ccccc2)cc1"
  VALUE_REPORTED: 7.44
- MOLECULE: "O=C(CN(c1ccc(Cl)cc1)S(=O)(=O)c1ccccc1)N/N=C/c1ccccc1O"
  VALUE_REPORTED: 7.17
- MOLECULE: "CCOc1ccc(S(=O)(=O)N(CC(=O)N2Cc3ccccc3CC2CC(N)=O)c2ccc(OC)cc2)cc1 (stereo not given)"
  VALUE_REPORTED: 6.29

Kindly consider the entry below.
Fill in the blank: the reported pKi of "COc1ccc(S(=O)(=O)N(CC(=O)Nc2cccc(Cl)c2C)c2ccc(C)cc2)cc1OC" is ____.
6.21

====

Species: Homo sapiens
ASSAY_NAME: Selectivity for human vasopressin V1a receptor over human oxytocin receptor
PROPERTY_NAME: Ratio Ki
One number for each entry.

- COMPOUND: "CCOc1ccc(S(=O)(=O)N(CC(=O)N2Cc3ccccc3CC2CC(N)=O)c2ccc(C)cc2)cc1 (centres undefined)"
  Ratio Ki: 3.6
- COMPOUND: "CN(C)CCCOc1ccc(S(=O)(=O)N(CC(=O)N/N=C2\\C(=O)NC(=O)c3ccccc32)c2ccc(Cl)cc2)cc1"
  Ratio Ki: 456

Fill in the blank: the reported Ratio Ki of "CCOc1ccc(S(=O)(=O)N(CC(=O)N/N=C/c2ccccc2O)c2ccc(C)cc2)cc1" is ____.
54

====

For each of the compounds below, state its solubility.
ASSAY_NAME: Solubility in aqueous medium
Assay type: physicochemical
TEST_CONDITIONS: aqueous medium; read-out: Solubility
Numbers only, in µg/mL.

Here are 2 compounds together with their reported answers.
- SMI: "CN(C)CCCOc1ccc(S(=O)(=O)N(CC(=O)/N=N/c2c(O)[nH]c3ccccc23)c2ccc(Cl)cc2)cc1.Cl"
  UNIT_ABBREVIATION: "µg/mL"
  solubility: 180
- SMI: "Cl.O=C(CN(c1ccc(Cl)cc1)S(=O)(=O)c1ccc(OCCN2CCOCC2)cc1)/N=N/c1c(O)[nH]c2ccccc12"
  UNIT_ABBREVIATION: "µg/mL"
  solubility: 127

// for each compound below, give its solubility
1. CN(C)CCCNC(=O)CCc1ccc(S(=O)(=O)N(CC(=O)/N=N/c2c(O)[nH]c3ccccc23)c2ccc(Cl)cc2)cc1.O=C(O)/C=C/C(=O)O
2. CN(C)CCCOc1ccc(S(=O)(=O)N(CC(=O)/N=N/c2c(O)[nH]c3ccncc23)c2ccc(Cl)cc2)cc1.O=C(O)C(F)(F)F
3. CN(C)CCCNC(=O)CCc1ccc(S(=O)(=O)N(CC(=O)/N=N/c2c(O)[nH]c3ccccc23)c2ccc(Cl)cc2)cc1.O=C(O)C(F)(F)F
4. CN(C)CCCOc1ccc(S(=O)(=O)N(CC(=O)N/N=C2\C(=O)NC(=O)c3ccccc32)c2ccc(Cl)cc2)cc1

[20000, 20000, 20000, 580]

====

System: Liver microsomes
ASSAY_NAME: Stability of compound in presence of human liver microsomes
Assay type: ADME, Microsome
PROPERTY_NAME: MET
Record the result as number plus unit.

- SMI: "CN(C)CCCOc1ccc(S(=O)(=O)N(CC(=O)N/N=C2\\C(=O)Nc3ccncc32)c2ccc(Cl)cc2)cc1"
  VALUE_REPORTED: "20%"
- SMI: "O=C(CN(c1ccc(Cl)cc1)S(=O)(=O)c1ccc(OCCN2CCOCC2)cc1)N/N=C1\\C(=O)Nc2ccccc21"
  VALUE_REPORTED: "57%"
- SMI: "COCCOCCOc1ccc(S(=O)(=O)N(CC(=O)N/N=C2\\C(=O)Nc3ccccc32)c2ccc(Cl)cc2)cc1"
  VALUE_REPORTED: "79%"
- SMI: "CN(C)CCCNC(=O)CCc1ccc(S(=O)(=O)N(CC(=O)N/N=C2\\C(=O)Nc3ccccc32)c2ccc(Cl)cc2)cc1"
  VALUE_REPORTED: "18%"
- SMI: "O=C(CN(c1ccc(Cl)cc1)S(=O)(=O)c1ccc(CCCO)cc1)N/N=C1\\C(=O)Nc2ccccc21"
  VALUE_REPORTED: "34%"

// for each compound below, give its MET
1. O=C(CN(c1ccc(Cl)cc1)S(=O)(=O)c1ccc(NCCN2CCOCC2)cc1)N/N=C1\C(=O)Nc2ccccc21
2. CN(C)CCCOc1ccc(S(=O)(=O)N(CC(=O)N/N=C2\C(=O)NC(=O)c3ccccc32)c2ccc(Cl)cc2)cc1

["73%", "91%"]

# returns recorded MET (system: Liver microsomes) for "CN(C)CCCOc1ccc(S(=O)(=O)N(CC(=O)N/N=C2\C(=O)Nc3ccccc32)c2ccc(Cl)cc2)cc1"
0%

====

For each of the compounds below, state its ED50.
TESTED_SYSTEM: Oxytocin receptor (Rattus norvegicus) (UniProt P70536)
Sequence (P70536 whole entry): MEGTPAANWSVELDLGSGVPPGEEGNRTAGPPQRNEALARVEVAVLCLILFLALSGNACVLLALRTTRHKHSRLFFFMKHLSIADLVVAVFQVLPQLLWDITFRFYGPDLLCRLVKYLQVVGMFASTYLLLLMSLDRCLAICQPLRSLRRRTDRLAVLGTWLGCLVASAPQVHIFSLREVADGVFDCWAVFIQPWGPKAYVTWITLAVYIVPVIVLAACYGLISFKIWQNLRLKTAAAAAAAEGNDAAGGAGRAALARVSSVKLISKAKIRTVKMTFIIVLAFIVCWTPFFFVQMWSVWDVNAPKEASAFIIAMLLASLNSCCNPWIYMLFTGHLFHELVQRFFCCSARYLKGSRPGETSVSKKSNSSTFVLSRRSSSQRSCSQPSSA
ASSAY_NAME: In vivo efficacy against oxytocin-induced uterine contractions in nonpregnant rats administered iv
Assay type: functional, organism-based
One number for each entry, in mg/kg.

- SMI: "CN(C)CCCOc1ccc(S(=O)(=O)N(CC(=O)N/N=C2\\C(=O)Nc3ccccc32)c2ccc(Cl)cc2)cc1"
  ED50, mg/kg: 7.5

// for each compound below, give its ED50
1. CCOc1ccc(S(=O)(=O)N(CC(=O)N/N=C2\C(=O)Nc3ccccc32)c2ccc(C)cc2)cc1
2. CN(C)CCCNC(=O)CCc1ccc(S(=O)(=O)N(CC(=O)N/N=C2\C(=O)Nc3ccccc32)c2ccc(Cl)cc2)cc1
3. O=C(CN(c1ccc(Cl)cc1)S(=O)(=O)c1ccc(OCCN2CCOCC2)cc1)N/N=C1\C(=O)Nc2ccccc21

10
1.4
9.4
